Target: HBsAg of HBV genotype C (DQ087960) (Hepatitis B virus)
Assay: sandwich ELISA, captured HBsAg from culture supernatant
Reported IC50 is given for each of the following binders.
Quick reminder: number only, in nM, skip the unit.

Please review the entries below; each comes with its answer.
Lookup: Using the record for NOV3841 (antibody, human IgG1, lambda, V domains shown, Full human IgG1 (lambda) expressed in CHO cells) VH: EVQLLESGGGLVQPGGSRRLSCAASGFTFSYYGMNWVRQAPGKGLEWVSGITQSGSITYYADTVKGRFSISRDNSKNTLFLQMNSLRAEDTAVYYCAKVGVRSSSGMWDLDYWGQGTLVTVSS VL: SYVLTQPPSVSVAPGQTARLSCGGNNIGSKSLQWYQQKPGQAPVLVVNDESDRPSGIPERFSGSNSGNTATLTISRVEAGDEADYYCQVWDTSSDHVVFGGGTKLTVLG , report its IC50.
Found: 2

Lookup: Now consider NOV3834 (antibody, human IgG1, kappa, V domains shown, Full human IgG1 (kappa) expressed in CHO cells) VH: QVQLVESGGGVVQPGRSLRLSCAASGFTFNRYGMHWVRQAPGKGLEWVAGIWHDGSHKYYADSLRGRFTISRDNAKNTLDLQLNRLRAEDTSVYYCVRQTNRGRLDDAFDIWGQGTMVTVSS VL: DIQMTQSPSSLSAAVGDRVTISCRASQTISSYLNWYQQKPGEAPKLLIYAASTLQSGVPSRFGGSGSGTDFTLTISSLQPEDSATYYCQQNYDTLWTFGQGTKVEIKR .
Found: 16

Next, consider the following binder.
Lookup: Reported IC50 for NOV3357 (antibody, human IgG1, kappa, V domains shown, Full human IgG1 (kappa) expressed in CHO cells) VH: EVQLLESGGGLVQPGGSLRLSCAASGFTFSPHAMSWVRQAPGKGLEWVSAISDSGGSTHYADSVKGRFTISRDNSKNTLYLQMNSLRAEDTAVYYCARDDDGWSGYDYWFDYWGQGTLVTVSS VL: DIQMTQSPSSLSASVGDRVTITCRASQSISPYLNWYQQKPGKAPKLLIYAADSLQSGVPSRFSGSGSGTDFTLTISSLQPEDFATYYCQQSYKIPLTFGQGTKVEIKR : what is it?
Found: 0.016
